Each recorded value in this set is attributed to ChEMBL document CHEMBL1799961.

Target: cAMP and cAMP-inhibited cGMP 3',5'-cyclic phosphodiesterase 10A (Mus musculus)
Sequence (Q8CA95 whole entry): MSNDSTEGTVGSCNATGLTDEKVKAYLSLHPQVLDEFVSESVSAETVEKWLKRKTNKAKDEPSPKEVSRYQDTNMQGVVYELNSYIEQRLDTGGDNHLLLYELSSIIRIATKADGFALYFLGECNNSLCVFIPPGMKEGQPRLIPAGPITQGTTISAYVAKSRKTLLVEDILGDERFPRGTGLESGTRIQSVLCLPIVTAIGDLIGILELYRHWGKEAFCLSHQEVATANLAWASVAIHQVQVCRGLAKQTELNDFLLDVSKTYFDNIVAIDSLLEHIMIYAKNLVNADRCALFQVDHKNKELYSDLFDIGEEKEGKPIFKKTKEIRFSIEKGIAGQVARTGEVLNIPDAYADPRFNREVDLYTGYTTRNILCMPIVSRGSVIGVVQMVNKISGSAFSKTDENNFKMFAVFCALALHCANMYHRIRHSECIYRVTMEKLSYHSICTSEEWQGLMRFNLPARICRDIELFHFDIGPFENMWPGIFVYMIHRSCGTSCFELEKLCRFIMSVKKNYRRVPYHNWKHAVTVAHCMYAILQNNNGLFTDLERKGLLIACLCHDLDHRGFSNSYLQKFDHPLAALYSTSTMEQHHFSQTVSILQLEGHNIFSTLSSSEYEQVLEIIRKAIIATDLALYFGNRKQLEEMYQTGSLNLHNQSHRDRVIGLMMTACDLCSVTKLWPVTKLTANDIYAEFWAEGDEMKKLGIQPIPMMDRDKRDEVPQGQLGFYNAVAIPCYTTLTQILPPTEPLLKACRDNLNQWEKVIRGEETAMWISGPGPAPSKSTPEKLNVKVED
So basically every entry gets a class from its IC50, ranges being small value (below 0.09 µM), mid value (0.09 µM to below 0.4 µM), large value (0.4 µM or more)

line_notation=COc1ccc(/C(C)=N/NC(=O)CSc2cc(C)nc3ccccc23)cc1OC class_name="mid value"
line_notation=COc1cc(/C=N/NC(=O)CSc2cc(C)nc3ccccc23)cc(Br)c1OC class_name="small value"
line_notation=COc1ccc(/C=N/NC(=O)CSc2cc(C)nc3ccccc23)c(Cl)c1OC class_name="large value"
line_notation=COc1cc(/C=N/NC(=O)CSc2cc(C)nc3ccccc23)ccc1Cl class_name="small value"
line_notation=COc1ccc(/C=N/NC(=O)CSc2cc(C)nc3ccccc23)cc1C(F)(F)F class_name="large value"
line_notation=COc1cc(/C=N/NC(=O)CSc2ccc([N+](=O)[O-])c3ccccc23)cc(OC)c1OC class_name="mid value"
line_notation=COc1ccccc1SCC(=O)N/N=C/c1cc(OC)c(OC)c(OC)c1 class_name="large value"
line_notation=COc1cc(/C=N/NC(=O)CSc2cc(C)nc3ccccc23)ccc1F class_name="mid value"
line_notation=COc1cc(/C=N/N(C)C(=O)CSc2cc(C)nc3ccccc23)cc(OC)c1OC class_name="small value"
line_notation=COc1cc(/C=N/NC(=O)CSc2cc(C)nc3ccccc23)cc(OC)c1 class_name="mid value"
line_notation=COc1cc(/C=N/NC(=O)CSc2ccnc3ccccc23)cc(OC)c1OC class_name="small value"
line_notation=COc1cccc(/C=N/NC(=O)CSc2cc(C)nc3ccccc23)c1 class_name="large value"
